The values you see were collected from patent US20250297032A1.

TESTED ON: T1, human FAPα-His tag (Sino biological) (human, UniProt Q12884 26-760)
T1 construct: Bought protein; also called human FAPα-His protein; not shown: His tag
T1 sequence (looked up): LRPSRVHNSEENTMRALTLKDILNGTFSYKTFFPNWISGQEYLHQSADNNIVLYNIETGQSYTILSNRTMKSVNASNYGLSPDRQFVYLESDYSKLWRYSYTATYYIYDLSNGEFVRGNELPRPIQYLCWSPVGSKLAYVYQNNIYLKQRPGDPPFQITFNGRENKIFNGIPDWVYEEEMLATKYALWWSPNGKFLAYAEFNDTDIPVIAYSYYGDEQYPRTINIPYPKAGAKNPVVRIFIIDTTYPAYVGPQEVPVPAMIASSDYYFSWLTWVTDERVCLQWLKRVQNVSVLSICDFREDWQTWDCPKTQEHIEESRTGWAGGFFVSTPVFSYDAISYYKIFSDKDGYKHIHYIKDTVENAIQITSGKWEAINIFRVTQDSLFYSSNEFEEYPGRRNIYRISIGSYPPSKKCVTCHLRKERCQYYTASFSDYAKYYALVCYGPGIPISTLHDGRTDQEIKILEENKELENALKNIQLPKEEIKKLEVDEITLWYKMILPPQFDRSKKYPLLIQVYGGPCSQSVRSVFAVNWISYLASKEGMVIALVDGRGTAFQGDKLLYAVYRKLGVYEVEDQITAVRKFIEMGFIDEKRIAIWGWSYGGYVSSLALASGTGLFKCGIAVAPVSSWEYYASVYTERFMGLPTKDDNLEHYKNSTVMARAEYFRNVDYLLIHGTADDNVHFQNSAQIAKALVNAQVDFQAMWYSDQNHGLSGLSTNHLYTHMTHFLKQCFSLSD
PROCEDURE SUMMARY: competitive ELISA on coated human FAPα; competitor (detected): FAP-J40-Bio
QUANTITY: OD 450 nm (OD 450 nm)

G52 (antibody, V domains shown, Tested as a mAb; also called FAP-G52; FAP-G52-Bio (biotin-conjugated form)) VH: EVQLLESGGDLVQPGGSLRLSCAASGFTFSSYAMSWVRQAPGKGLEWVSGISNGGDSIAYADSVKGRFTVFRDNAKNTLYLQMNSLRAEDTAIYYCARGNYYAHDDWGQGTLVTVSA VL: DIQLTQSPSSVSASVGDRVTITCRASQGVGSWLAWYQQKPGKPPKLLIYAASSLQSGVPSRFSGSGSGTDFTLTISSLQPEDFATYYCQQANSFPLTFGGGTKVEIK | 0.298
G14 (antibody, V domains shown, Full human antibody from a Fab phage library; Tested as a mAb (detected with anti-human IgG, captured on Protein A); also called FAP-G14; FAP-G14-Bio (biotin-conjugated form)) VH: QVQLLESGGGVVQPGRSLRLSCAASGFTFSSYAMHWVRQAPGKGLEWVAFISHDGNRNSYADSVRGRFTISRDNSKNTLYLQMNSLRAEDTAVYYCARDLGYYNGFSYWGQGTLVTVSA VL: DIVMTQSPSSVSASVGDRVTITCRASQGISSWLAWYQQKPGKAPKLLIYAASSLQSGVPSRFSGSGSGTDFTLTISSLQPEDFATYYCQQANSFPPTFGPGTKVDIK | 0.293
J40 (antibody, V domains shown, Tested as a mAb; also called FAP-J40; FAP-J40-Bio (biotin-conjugated form)) VH: EVQLLESGGGLVQPGGSLRLSCAASGFTFSSYAMSWVRQAPGKGLEWVSAISGSGGSTYYADSVKGRFTISRDNSKNTLYLQMNSLRTDDTAVYYCARDLTTSTGWESWGQGTLVTVSA VL: NIQMTQSPSSVSASVGDRVTITCRASQGISSWLAWYQQKPGKAPKLLIYAASSLQSGVPSRFSGSGSGTDFTLTISSLQPEDFATYYCQQANSFPPTFGQGTKLEIK | 0.261
I37 (antibody, V domains shown, Tested as a mAb; also called FAP-I37) VH: QLQLVESGGGLVQPGGSLRLSCAASGFTFSSYAMSWVRQAPGKGLEWVSAISGSGGSTYYADSVKGRFTISRDNSKNTLYLQMNSLRAEDTAVYYCARDKPWGGSFDYWGQGTLVTVSA VL: DIQLTQSPSSLSASVGDRVTITCRASQGISSWLAWYQQKPGKAPKLLIYAASSLQSGVPSRFSGSGSGTDFTLTISSLQPEDFATYYCQQANSFPVTFGPGTKVDIK | 0.314
I38 (antibody, V domains shown, Tested as a mAb; also called FAP-I38) VH: EVQLVQSGAEVKEPGVSVKVSCKASGYTFASYGLSWVRLAPGQGLQWMGWISPYTPNPIYAPNFRDKVILTTDRSTNTAYLEVRSLRSDDTGLYYCARNHWVGRPTRAFDLWGQGTMVTVSA VL: EIVLTQSPGTLSLSPGERATLSCRASQTVSITHLAWYQQKPGQAPRLLTYGASARATGIPDRFSVSGSGTDFTLTITRLEPEDFAVYYCQHYGSSITFGGGTKVEIK | 0.226
